test system: SK-OV-3 ovarian
Outcomes you can answer with include only these: true (1) (active), false (0) (inactive)

Example results:
Query: In this assay, the call recorded for Cc1ccc2cc3c(N)c4c(C)ccc(C)c4nc3nc2c1 was what?
Response: false (0)

Query: In this assay, the call recorded for COc1ccc(/C(COc2ccc3c(c2)oc(=O)c2cc(OC)ccc23)=N/O)cc1 was what?
Response: false (0)

Query: In this assay, the call recorded for NC1CCCCC1N.O=NN1CCCCCC1(P(=O)([O-])[O-])P(=O)([O-])[O-].[Na+].[Pt+2] was what?
Response: false (0)

Others:
Query: In this assay, the call recorded for C=CC(=O)N1CC2(CCC(n3nc(-c4ccc(Oc5ccccc5)cc4)c4c(N)ncnc43)CC2)C1 was what?
Response: true (1)

Query: In this assay, the call recorded for CC[C@H](Nc1cc(C)nc(N)n1)c1nc2cccc(NCc3ccc(C(=O)NO)cc3)c2c(=O)n1-c1ccccc1 was what?
Response: false (0)

Query: In this assay, the call recorded for O=C(/C=C/c1cccc(O)c1)c1cccc(-n2cc(-c3ccc(Cl)cc3)[nH]c2=O)c1 was what?
Response: false (0)

###

# GI50 per entry for U251 CNS

Query: Param readout = GI50; param system = U251 CNS; param query = CCOC(=O)c1ccc2c(c1)c1c(C)c3cnccc3c(C)c1n2C ; response: value
Response: 99.2 nM

Query: Param readout = GI50; param system = U251 CNS; param query = CC[C@H](Nc1cc(C)nc(N)n1)c1nc2cccc(NCc3ccc(C(=O)NO)cc3)c2c(=O)n1-c1ccccc1 ; response: value
Response: 1470 nM

Query: Param readout = GI50; param system = U251 CNS; param query = Clc1ccc(-c2ccc(CNCC3CCNCC3)o2)c(-c2ccccc2)c1 ; response: value
Response: 1560 nM

Query: Param readout = GI50; param system = U251 CNS; param query = C=C(CN1CCc2ccccc2C1)c1ccc(CCC(=O)Nc2ccccc2N)cc1 ; response: value
Response: 21300 nM

Query: Param readout = GI50; param system = U251 CNS; param query = C=C1C(=O)c2sccc2C(c2ccc(OC)c(OC)c2)C1COC(C)=O (centres undefined) ; response: value
Response: 1620 nM

Query: Param readout = GI50; param system = U251 CNS; param query = Cn1cc(C2=C(c3cn(C)c4ccc(OCc5ccccc5)cc34)C(=O)NC2=O)c2ccccc21 ; response: value
Response: > 25000 nM

Query: Param readout = GI50; param system = U251 CNS; param query = COC(=O)/C=C1/SC(=Nc2ccc(C(F)(F)F)cc2)N(CCc2c[nH]c3ccc(O)cc23)C1=O ; response: value
Response: 1460 nM

Query: Param readout = GI50; param system = U251 CNS; param query = NC1CCCCC1N.O=NN1CCCCCC1(P(=O)([O-])[O-])P(=O)([O-])[O-].[Na+].[Pt+2] ; response: value
Response: > 100000 nM

Below: the item to evaluate.
Query: Param readout = GI50; param system = U251 CNS; param query = COc1ccc(C2C(C#N)=C(N)Oc3c2sc2c(C)cccc32)cc1 (centres undefined) ; response: value
Response: 489 nM

###

test system: MDA-MB-231 breast
# GI50 per entry

Solved cases below.
Query: Param readout = GI50; param system = MDA-MB-231 breast; param query = Clc1ccc(-c2ccc(CNCC3CCNCC3)o2)c(-c2ccccc2)c1 ; response: value
Response: 1360 nM

Query: Param readout = GI50; param system = MDA-MB-231 breast; param query = COC(=O)c1ccc2[nH]c(O)c(C(=Nc3ccc(N(C)C(=O)CN4CCN(C)CC4)cc3)c3ccc(OC)cc3)c2c1 ; response: value
Response: 1070 nM

Others:
Query: Param readout = GI50; param system = MDA-MB-231 breast; param query = C=CCSSC1N=CNc2nc[nH]c21 (stereo unspecified) ; response: value
Response: 4840 nM

Query: Param readout = GI50; param system = MDA-MB-231 breast; param query = CCSc1nc2[nH]c(=S)[nH]c(=S)c2c(-c2ccc(OC)c(OC)c2)c1C#N ; response: value
Response: 9750 nM

Query: Param readout = GI50; param system = MDA-MB-231 breast; param query = C=C1C(=O)c2sccc2C(c2ccc(OC)c(OC)c2)C1COC(C)=O (stereo unspecified) ; response: value
Response: 551 nM

Query: Param readout = GI50; param system = MDA-MB-231 breast; param query = O=C1C=C(Nc2ccc([N+](=O)[O-])cc2)c2ccccc2C1=O ; response: value
Response: 1720 nM

Query: Param readout = GI50; param system = MDA-MB-231 breast; param query = Nc1nonc1-c1nc2cnccc2n1C1CCCCC1 ; response: value
Response: > 25000 nM

Query: Param readout = GI50; param system = MDA-MB-231 breast; param query = COc1ccc(C2C(C#N)=C(N)Oc3c2sc2c(C)cccc32)cc1 (stereo unspecified) ; response: value
Response: 1220 nM

Query: Param readout = GI50; param system = MDA-MB-231 breast; param query = CCCc1n(Cc2ccc3ccccc3c2)c2ccccc2[n+]1Cc1ccc2ccccc2c1 ; response: value
Response: 301 nM

Query: Param readout = GI50; param system = MDA-MB-231 breast; param query = C=C(CN1CCc2ccccc2C1)c1ccc(CCC(=O)Nc2ccccc2N)cc1 ; response: value
Response: 18600 nM

Query: Param readout = GI50; param system = MDA-MB-231 breast; param query = CC(C)OC(=O)Nc1ccc(-c2nc(-c3cccc(OCCN4CCOCC4)c3)c(-c3ccnc(Br)c3)[nH]2)cc1 ; response: value
Response: 3540 nM

###

test system: UO-31 renal; assay: NCI tumour cell line growth inhibition, 48 h
# TGI per entry

Query: Quick one: TGI for CC(=O)Oc1ccc(/C=C/C(=O)NCC(NC(=O)/C=C/c2ccc(OC(C)=O)c(OC(C)=O)c2)C(=O)O)cc1OC(C)=O (centres undefined) ?
Response: > 100 µM

Query: Quick one: TGI for CCN(CC)CCNc1ccc(C)c2sc3ccccc3c(=O)c12 (tested in a mixture with another compound) ?
Response: 3.79 µM

Query: Quick one: TGI for CCOC(=O)C(NC(=O)c1ccccc1)(Nc1cc(C)on1)C(F)(F)F (centres undefined) ?
Response: > 100 µM

Others:
Query: Quick one: TGI for Cc1cc(C)nc(NS(=O)(=O)c2ccc(NNc3c4ccccc4nc4c(C(=O)Nc5ccc(S(=O)(=O)N=C(N)N)cc5)cccc34)cc2)n1 ?
Response: > 100 µM

Query: Quick one: TGI for c1ccc(N2CCN(CN3CCN(c4ccccc4)C3)C2)cc1 ?
Response: > 100 µM

Query: Quick one: TGI for O=C(/C=C/c1cccc(O)c1)c1cccc(-n2cc(-c3ccc(Cl)cc3)[nH]c2=O)c1 ?
Response: 3.46 µM

Query: Quick one: TGI for COC(=O)c1c(O)ccc2c1c1c(n2CCc2ccccc2)C(=O)c2ccccc2C1=O ?
Response: 23.1 µM

Query: Quick one: TGI for Cn1cnc2[nH]c(=O)[nH]c(=S)c21 ?
Response: > 100 µM

Query: Quick one: TGI for O=C(O)C(C(C(=O)O)P(=O)(O)O)P(=O)(O)O (centres undefined) ?
Response: > 100 µM

###

system: T-47D breast; test: NCI tumour cell line growth inhibition, 48 h
endpoint: TGI (µM)
Express it in µM; write the number only.

Query: Quick one: TGI for C=C1C(=O)[C@@]23CC[C@@H]4[C@@]5(C)CCC[C@@]4(OC5=O)C2(C)CC[C@]1(OC)C3 (some centres undefined) ?
Response: 4.6

Below: the item to evaluate.
Query: Quick one: TGI for C=C(C(=O)OC1C(CO)OC(OCC2CC[C@@H]3C[C@]4(OC(=O)C3=C)C(C)=CC(=O)C24)C(O)C1O)[C@@H]1CCC(CO)C2C(=O)C=C(C)[C@@]2(O)C1 (some centres undefined) ?
Response: 24.3

###

system: SF-539 CNS
Where a SMILES comes first, the peptide text is derived from it. [ ]: non-standard residue; d: D form. The star is where a group is joined. Nle = CCCC[C@H](N)C(=O)O; Cbz = O=C(OCc1ccccc1)*
Outcomes you can answer with include only these: true for active, false for inactive

Example results:
Query: In this assay, the call recorded for C=C(CN1CCc2ccccc2C1)c1ccc(CCC(=O)Nc2ccccc2N)cc1 was what?
Response: false

Query: In this assay, the call recorded for CC(=O)O[C@H]1C(=O)[C@@]2(C)[C@H]([C@H](OC(=O)c3ccccc3)[C@]3(O)C[C@H](OC(=O)[C@H](OC(=O)OC[C@@H]4COC(C)(C)O4)[C@@H](NC(=O)c4ccccc4)c4ccccc4)C(C)=C1C3(C)C)[C@]1(OC(C)=O)CO[C@@H]1C[C@@H]2O was what?
Response: true

Now look at this entry.
Query: In this assay, the call recorded for CCCC[C@@H](C=O)NC(=O)[C@H](CC(C)C)NC(=O)[C@H](CC(C)C)NC(=O)OCc1ccccc1 (Cbz-Leu-Leu-[Nle]-aldehyde) was what?
Response: true
